Numbers sourced from patent US20060073152A1.

IC50 for assorted binders
# Test system: T1, rabbit serum albumin (rabbit, UniProt P49065 25-608)
# T1 construct: also called Rabbit SA; BuSA
# T1 sequence (P49065 25-608 limits assumed): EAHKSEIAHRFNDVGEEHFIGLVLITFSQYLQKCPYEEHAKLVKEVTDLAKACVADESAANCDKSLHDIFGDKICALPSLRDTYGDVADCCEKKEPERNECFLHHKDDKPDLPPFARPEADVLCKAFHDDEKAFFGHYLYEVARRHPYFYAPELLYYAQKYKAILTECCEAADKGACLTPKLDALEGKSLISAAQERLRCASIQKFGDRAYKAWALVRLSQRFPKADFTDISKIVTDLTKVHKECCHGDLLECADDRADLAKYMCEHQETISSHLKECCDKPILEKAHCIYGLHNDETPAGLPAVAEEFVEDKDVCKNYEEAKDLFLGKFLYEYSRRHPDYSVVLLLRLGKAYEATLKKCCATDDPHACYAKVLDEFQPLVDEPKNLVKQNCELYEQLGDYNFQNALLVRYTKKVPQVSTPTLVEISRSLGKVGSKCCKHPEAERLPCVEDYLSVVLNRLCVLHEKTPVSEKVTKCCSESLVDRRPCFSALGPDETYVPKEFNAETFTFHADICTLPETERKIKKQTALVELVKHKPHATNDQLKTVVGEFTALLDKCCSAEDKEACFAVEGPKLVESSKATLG
# Method description: peptide competition for albumin
Positions of bridges follow the written chain, without caps; N, C: chain ends. No end group written: not given here.
Observation type: IC50 (nM)

1) Ac-MEDICLPRWGCLWED-NH2 (not fully specified (bridges); cysteine pairing not given here, free peptide) [SA12]    1760
2) QGLIGDICLPRWGCLWGDSV-NH2 (not fully specified (bridges); cysteine pairing not given here, free peptide) [SA07]    30
3) Ac-EDICLPRWGCLWEDD-NH2 (not fully specified (bridges); cysteine pairing not given here, free peptide) [SA09]    1690
4) Ac-RLMEDICLPRWGCLWEDD-NH2 (cysteine pairing not given here, free peptide) [SA10]    86
5) DICLPRWGCLW-NH2 (not fully specified (bridges); cysteine pairing not given here, free peptide) [SA04]    8540
6) Ac-QGLIGDICLPRWGCLWGDSVK-NH2 (cysteine pairing not given here, free peptide) [SA08]    63
7) Ac-MEDICLPRWGCLWEDD-NH2 (not fully specified (bridges); cysteine pairing not given here, free peptide) [SA11]    1210
8) QRLMEDICLPRWGCLWEDDF-NH2 (disulfide 8-14 (inferred)) [SA06]    128
9) MEDICLPRWGCLWED-NH2 (not fully specified (bridges); cysteine pairing not given here, free peptide) [SA05]    804
